VALUE_KIND: melting point

Consider the molecule COC(=O)c1ccc(OCC2CC(=O)N(c3ccc(OCC(C)(C)O)cc3)C2)cc1 (stereo unspecified) and give its recorded melting point.
89.5 to 90.5 °C

Give the value of melting point reported for the following: CS(=O)(=O)c1ccc(-c2cc(F)c(F)cc2Br)cc1
158 to 160 °C

Answer with the recorded melting point for the molecule listed here: CC12CC(N3CCC(O)CC3)C(O)CC1CCC1C2CCC2(C)C(O)C(N3CCCC3)CC12 (stereo unspecified)
188 to 190 °C

Please supply the value of reported melting point for the item N#Cc1c(O)nsc1S(=O)(=O)Cc1ccccc1
181 to 183 °C

Quote melting point reported for COc1cc(COc2nn(-c3ccccc3)cc2/C=C/c2nc(C)cs2)ccc1OCc1nc(-c2ccco2)oc1C please.
130 to 131 °C

State its melting point for this molecule: Cc1ccc(CC(CNC(=O)C(C)c2ccc(NS(C)(=O)=O)cc2)COC(=O)C(C)(C)C)cc1C (stereo unspecified)
112 to 115 °C
